# system.tested: MycN (Homo sapiens, UniProt P04198)
# Construct: endogenous in cells; host or cells: SK-N-BE(2)
# Sequence (P04198 whole entry): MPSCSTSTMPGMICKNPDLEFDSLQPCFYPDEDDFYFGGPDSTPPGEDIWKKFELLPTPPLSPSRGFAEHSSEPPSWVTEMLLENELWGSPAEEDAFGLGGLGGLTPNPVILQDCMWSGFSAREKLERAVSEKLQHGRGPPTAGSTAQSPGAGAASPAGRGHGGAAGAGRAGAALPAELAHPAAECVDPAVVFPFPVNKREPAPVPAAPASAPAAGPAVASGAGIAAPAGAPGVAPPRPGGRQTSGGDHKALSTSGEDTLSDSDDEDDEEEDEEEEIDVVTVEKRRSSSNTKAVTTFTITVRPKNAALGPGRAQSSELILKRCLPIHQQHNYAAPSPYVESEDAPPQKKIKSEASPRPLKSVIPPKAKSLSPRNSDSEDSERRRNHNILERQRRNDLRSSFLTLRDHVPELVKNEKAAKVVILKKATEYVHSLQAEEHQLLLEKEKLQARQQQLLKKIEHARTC
# assay: Degradation of MycN protein in SK-N-BE(2) cells (JESS/Western blot)
# Assay type: cell-based
# experimental.parameters: SKNBE2 cells, 24 h, 0.5 μM; read-out: % Degradation of MycN (SKNBE2) 24 h, 0.5 μM
Recorded measurements of Dmax at 0.5 µM, one per entry

Guide cases for Dmax at 0.5 µM, answers given:
c1cc(Nc2cc(C3CCCC3)[nH]n2)nc(NC2CCC3(CC2)CNC3)n1 [Compound 40] = 50 to 79%
c1cc(Nc2cc(C3CC3)[nH]n2)nc(NC2CCOCC2)n1 [Compound 65] = 20 to 49%
CN1CC2(CC(Nc3nccc(Nc4cc(C5CCCC5)[nH]n4)n3)C2)C1 [Compound 38] = 20 to 49%

Ask | Note down Dmax at 0.5 µM recorded for F[C@@H]1CNCC[C@@H]1Nc1nccc(Nc2cc(C3CC3)[nH]n2)n1 [Compound 44]
Reply | < 20%

Ask | Note down Dmax at 0.5 µM recorded for c1cc(Nc2cc(C3CC3)[nH]n2)nc(NC2CCC3(CC2)CNC3)n1 [Compound 33]
Reply | 20 to 49%

Reference for the values: patent US20250177393A1
